Reference for the values: paper PMC6556873

assay: in vitro; design: species or system CCD841, HEK293; conditions: human, hb2 cells, read-out: HB-2 Cells Viability (%)
measurement-label: viability at 48 h, 10 µM (%)
Answer format: numeric, % implied, no suffix.

Q. viability at 48 h, 10 µM for "Cc1ccc(-c2cc(NC(=O)CCl)on2)cc1" ?
A. 42.7

Q. Next: "Cc1ccc(S(=O)(=O)NC(=O)CCl)cc1"
A. 101

Q. Next: "O=C(CCl)NC1CCOCC1"
A. 100

Q. Next: "N#Cc1c(NC(=O)CCl)sc2c1CCCC2"
A. 77.2

Q. Next: "C=CC(=O)N1CCN(C(C)C)c2ccccc2C1"
A. 108

Q. Next: C=CC(=O)N1CCCC(C(C)NC(=O)NC(C)(C)C)C1 (stereo not drawn)
A. 105

Q. Next: "O=C(CCl)N1CCN(C(=O)c2ccco2)CC1"
A. 78.1

Q. Next: "O=C(CCl)Nc1nnc(C2CC2)o1"
A. 106

Q. Next: "CNC(=O)c1ccc(NC(=O)CCl)cc1"
A. 20

Q. Next: "O=C(CCl)N1CCN(c2ncc(Cl)cc2Cl)CC1"
A. 3.6

Q. Next: "C=CC(=O)Nc1ccccc1C(=O)OC"
A. 90.2

Q. Next: "Cl.O=C(CCl)Nc1cccnc1"
A. 84.6

Q. Next: "C=CC(=O)NCC1(O)CCS(=O)(=O)CC1"
A. 104

Q. Next: "CC1(C)CCCN1C(=O)CCl"
A. 104

Q. Next: C=CC(=O)NC1CCCN(c2cc(C)nn2C)C1=O (stereo not drawn)
A. 98.2

Q. Next: "C=CC(=O)NNC(=O)c1ccccc1"
A. 106

Q. Next: "Cc1cc(CNC(=O)CCl)ccc1F"
A. 85.5

Q. Next: C=CC(=O)NC1CCOC2(CCS(=O)(=O)C2)C1 (stereo not drawn)
A. 102

Q. Next: "C#CCN1CCN(C(=O)CCl)CC1.Cl"
A. 92.5

Q. Next: "O=C(CCl)Nc1ccc2c(c1)CCC2"
A. 16.3

Q. Next: C=CC(=O)NC(C)c1ccc(C(F)(F)F)nc1Cl (stereo not drawn)
A. 99.6
